# tgt: MNV RdRp (NS7) WT (Murine norovirus 1 strain CW1)
# Sequence: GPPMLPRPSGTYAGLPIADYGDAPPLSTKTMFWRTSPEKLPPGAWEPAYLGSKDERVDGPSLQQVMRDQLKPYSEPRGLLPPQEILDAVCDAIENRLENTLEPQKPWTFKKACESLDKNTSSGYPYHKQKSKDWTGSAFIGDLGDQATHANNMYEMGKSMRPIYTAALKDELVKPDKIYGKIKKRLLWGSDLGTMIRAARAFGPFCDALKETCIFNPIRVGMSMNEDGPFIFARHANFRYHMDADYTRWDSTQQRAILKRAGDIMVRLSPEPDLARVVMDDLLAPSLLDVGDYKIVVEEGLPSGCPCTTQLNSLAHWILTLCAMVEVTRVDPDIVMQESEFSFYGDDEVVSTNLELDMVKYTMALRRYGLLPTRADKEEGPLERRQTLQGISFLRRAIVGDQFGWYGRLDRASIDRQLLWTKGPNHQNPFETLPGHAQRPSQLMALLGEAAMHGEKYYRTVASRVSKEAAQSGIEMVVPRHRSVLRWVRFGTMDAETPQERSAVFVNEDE
# protocolDescription: fluorescence polarization competition
# protocolConditions: FP: 10 mM Tris-HCl pH 8.0, 30 mM NaCl, 1% glycerol, 0.5 mM 2-mercaptoethanol, 0.1 uM fMps, temperature not stated; synthesis competition: 20 mM Na glutamate pH …
metricName: pKi
By convention, pKi is the negative base-10 log of a molar concentration.

sequenceCode | reportedResult
GCGUCAUUCACAAAGACUGCUGAGCGUUCCUGCGGGGUCUCAGCAUCCAUU [Mps (MNV subgenomic proscript)] | 6.17

Now consider a different sequence.
[Q] Tell me measured pKi for CUGCUGAGCGUUCCUGCGGGGUCUCAGCAU [Mhp (hairpin of Mps; also printed Mph)] please.
[A] 5.20
